Procedure details: Single-dose pharmacokinetics, safety and tolerability of 10-minute intravenous infusion in healthy volunteers
Type: in vivo, human
Setup conditions: human, plasma, intravenous; across all doses; read-out: terminal half-life, harmonic mean
Quantity kind: half-life
Be sure to follow the number with its unit.

If you can, please state the reported half-life value of Nc1nc(N/N=C/C2CCCCC2)nc2c1ncn2[C@@H]1O[C@H](CO)[C@@H](O)[C@H]1O (stereo in doubt) .
10 min

* * *

Procedure details: Single-dose pharmacokinetics, safety and tolerability of 10-minute intravenous infusion in healthy volunteers
Assay type: in vivo, human
Setup conditions: human, plasma, 6 ug/kg; 6 μg/kg iv over 10 minutes
Quantity kind: Tmax

# Tmax lookup, item Nc1nc(N/N=C/C2CCCCC2)nc2c1ncn2[C@@H]1O[C@H](CO)[C@@H](O)[C@H]1O (stereo in doubt)
9 min

* * *

Measurement target: A2A adenosine receptor (Cavia porcellus, UniProt P46616)
Sequence (P46616 whole entry): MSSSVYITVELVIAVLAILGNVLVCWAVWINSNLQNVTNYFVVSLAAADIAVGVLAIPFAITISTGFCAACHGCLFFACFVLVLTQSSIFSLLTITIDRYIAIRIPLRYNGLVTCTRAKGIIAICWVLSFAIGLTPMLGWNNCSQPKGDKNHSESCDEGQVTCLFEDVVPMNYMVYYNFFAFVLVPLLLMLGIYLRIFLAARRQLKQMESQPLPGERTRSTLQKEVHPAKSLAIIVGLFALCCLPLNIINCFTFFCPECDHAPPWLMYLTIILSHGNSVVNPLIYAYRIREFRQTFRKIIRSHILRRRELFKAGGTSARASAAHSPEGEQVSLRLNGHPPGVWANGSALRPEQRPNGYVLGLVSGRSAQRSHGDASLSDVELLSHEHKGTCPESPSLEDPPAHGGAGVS
Procedure details: Langendorff guinea pig heart preparation, coronary vasodilation (coronary flow)
Setup conditions: quotient EC50-SQPR / EC50-CF
Quantity kind: A1/A2A Selectivity

Using the record for Nc1nc(N)c2ncn([C@@H]3O[C@H](CO)[C@@H](O)[C@H]3O)c2n1 [Compare B, 2-Amino-adenosine, reference compound] , report its A1/A2A Selectivity.
50

Give its A1/A2A Selectivity value. Item: CCCCCC=NNc1nc(N)c2ncn([C@@H]3O[C@H](CO)[C@@H](O)[C@H]3O)c2n1 [E, 2-[2-(hexylidene)hydrazino]adenosine]
38,000

Can you look up the measured A1/A2A Selectivity of Nc1nc(NN=Cc2ccc(F)cc2)nc2c1ncn2[C@@H]1O[C@H](CO)[C@@H](O)[C@H]1O [J] for me?
5,100

What A1/A2A Selectivity value was documented for this molecule, CC(C)CCC=NNc1nc(N)c2ncn([C@@H]3O[C@H](CO)[C@@H](O)[C@H]3O)c2n1 [C] ?
44,700

So what's the measured A1/A2A Selectivity for this one? Nc1nc(N/N=C/c2ccccc2)nc2c1ncn2[C@@H]1O[C@H](CO)[C@@H](O)[C@H]1O (stereo in doubt) [I, 2-[2-(Benzylidene) hydrazino]adenosine]
36,300

I have this molecule here, Cc1cccc(C=NNc2nc(N)c3ncn(C4OC(CO)C(O)C4O)c3n2)c1 (stereo not drawn) [L] , and I need its recorded A1/A2A Selectivity.
3,800

Report A1/A2A Selectivity for NNc1nc(N)c2ncn([C@@H]3O[C@H](CO)[C@@H](O)[C@H]3O)c2n1 [Compare C, 2-Hydrazino-adenosine, reference compound] please.
250

Give the measured A1/A2A Selectivity of Nc1nc(N/N=C/C2CCCCC2)nc2c1ncn2[C@@H]1O[C@H](CO)[C@@H](O)[C@H]1O (stereo in doubt) [Binodenoson] .
13,800

Which A1/A2A Selectivity reading was recorded for the molecule CCCC(CCC)CCC=NNc1nc(N)c2ncn([C@@H]3O[C@H](CO)[C@@H](O)[C@H]3O)c2n1 [G] ?
37,200

* * *

Procedure details: Single-dose pharmacokinetics, safety and tolerability of 10-minute intravenous infusion in healthy volunteers
Type: in vivo, human
Setup conditions: human, plasma, 3 ug/kg; 3 μg/kg iv over 10 minutes
Quantity kind: Tmax (min)
State just the number; it will be interpreted in min.

Fill blank: measured Tmax of the molecule Nc1nc(N/N=C/C2CCCCC2)nc2c1ncn2[C@@H]1O[C@H](CO)[C@@H](O)[C@H]1O (stereo in doubt) [Binodenoson] is ____.
9.5
